settings: in 2-butanone, 315.75 K
reported.property: solubility (mole fraction)
Please reply with the number alone, leaving off any unit.

Ask: Can you look up the measured solubility (mole fraction) of CC(=O)C1C(=O)C=C(C)OC1=O (stereo unspecified) for me?
Reply: 0.037

====

details: in isopropanol, 304.65 K
reported.property: solubility (mole fraction)
Enter the number alone.

Ask: What does the data say about its solubility (mole fraction)? Entry: CC(=O)C1C(=O)C=C(C)OC1=O (stereo unspecified)
Reply: 0.0105

====

details: in n-pentanol, 296.25 K
reported.property: solubility (mole fraction)
Please state the value as a number alone, without comment.

Ask: Record request: solubility (mole fraction) value, item CC(=O)C1C(=O)C=C(C)OC1=O (stereo unspecified)
Reply: 0.00959

====

conditions: in acetonitrile, 292.35 K
reported.property: solubility (mole fraction)
Just the number, please, no unit attached.

Ask: Bench note: what solubility (mole fraction) did CC(=O)C1C(=O)C=C(C)OC1=O (stereo unspecified) show?
Reply: 0.0489

====

settings: in DMSO, 316.15 K
reported.property: solubility (mole fraction)

Ask: Fill in: solubility (mole fraction) of CC(=O)C1C(=O)C=C(C)OC1=O (stereo unspecified) is ___
Reply: 0.0874

====

conditions: in acetone, 300.25 K
reported.property: solubility (mole fraction)
Respond with the number and no other words.

Ask: Form field: reported solubility (mole fraction) of CC(=O)C1C(=O)C=C(C)OC1=O (stereo unspecified)
Reply: 0.0695

====

conditions: in acetonitrile, 300.35 K
reported.property: solubility (mole fraction)
Enter a number only.

Ask: Tell me the measured solubility (mole fraction) of CC(=O)C1C(=O)C=C(C)OC1=O (stereo unspecified) , please.
Reply: 0.0634

====

conditions: in isopropanol, 296.55 K
reported.property: solubility (mole fraction)
Lab note: jot down the number only; don't add units.

Ask: Entry CC(=O)C1C(=O)C=C(C)OC1=O (stereo unspecified) has what solubility (mole fraction)?
Reply: 0.00709

====

conditions: in n-propanol, 292.65 K
reported.property: solubility (mole fraction)
// no unit string in output, number only

Ask: Any idea what solubility (mole fraction) was measured for CC(=O)C1C(=O)C=C(C)OC1=O (stereo unspecified) ?
Reply: 0.00657

====

conditions: in DMAc, 304.45 K
reported.property: solubility (mole fraction)
Form field (numeric): enter value without unit.

Ask: Need solubility (mole fraction), item CC(=O)C1C(=O)C=C(C)OC1=O (stereo unspecified)
Reply: 0.15

====

conditions: in DMSO, 296.15 K
reported.property: solubility (mole fraction)

Ask: Would you kindly share the measured solubility (mole fraction) for CC(=O)C1C(=O)C=C(C)OC1=O (stereo unspecified) ?
Reply: 0.0383

====

details: in n-propanol, 308.15 K
reported.property: solubility (mole fraction)
The reply should be a number, written without any unit.

Ask: Look up solubility (mole fraction): CC(=O)C1C(=O)C=C(C)OC1=O (stereo unspecified)
Reply: 0.0143

====

conditions: in n-propanol, 304.35 K
reported.property: solubility (mole fraction)

Ask: What value of solubility (mole fraction) has been reported for the following compound? CC(=O)C1C(=O)C=C(C)OC1=O (stereo unspecified)
Reply: 0.0118

====

settings: in methanol, 288.05 K
reported.property: solubility (mole fraction)
No unit in the answer, only the number.

Ask: What solubility (mole fraction) value was documented for this compound, CC(=O)C1C(=O)C=C(C)OC1=O (stereo unspecified) ?
Reply: 0.00588
